Form field: viability at 48 h, 10 µM (one value per entry).
# assayInfo: in vitro
# Design: species or system HB2, HEK293
# measurementParameters: human, ccd841 cells

molecule: CC1CCC(N(C)C(=O)CCl)CC1 (centres unmarked)
viability at 48 h, 10 µM (%): 40.7

molecule: C=CC(=O)NCc1snnc1C
viability at 48 h, 10 µM (%): 102

molecule: C=CC(=O)Nc1ccc(C(=O)O)cc1
viability at 48 h, 10 µM (%): 94.2

molecule: Cc1ccc(-n2nc(C)c(NC(=O)CCl)c2C)cc1
viability at 48 h, 10 µM (%): 26.3

molecule: O=C(CCl)Nc1ccccc1O
viability at 48 h, 10 µM (%): 95.4

molecule: Cc1ccccc1C(=O)NC1CCN(C(=O)CCl)CC1
viability at 48 h, 10 µM (%): 76.5

molecule: CC(NC(=O)CCl)c1ccccc1Cl (centres unmarked)
viability at 48 h, 10 µM (%): 74.2

molecule: O=C(CCl)N1CCCC1c1cccs1 (centres unmarked)
viability at 48 h, 10 µM (%): 39

molecule: O=C(CCl)N1CCN(S(=O)(=O)c2ccc(Cl)cc2)CC1
viability at 48 h, 10 µM (%): 18.8

molecule: Cl.O=C(CCl)N1CCN(Cc2ccccc2)CC1
viability at 48 h, 10 µM (%): 81.1

molecule: CNC(=O)C1CCCN1C(=O)CCl (centres unmarked)
viability at 48 h, 10 µM (%): 93.3

molecule: N#CC(c1ccc(F)cc1)N1CCN(C(=O)CCl)CC1 (centres unmarked)
viability at 48 h, 10 µM (%): 60.3

molecule: O=C(CCl)Nc1cc([N+](=O)[O-])ccc1F
viability at 48 h, 10 µM (%): 2.5

molecule: O=C(CCl)Nc1cc(C(F)(F)F)ccc1N1CCCC1
viability at 48 h, 10 µM (%): 116

molecule: O=C(CCl)N1N=C(c2ccco2)CC1c1ccsc1 (centres unmarked)
viability at 48 h, 10 µM (%): 15.6

molecule: C=CC(=O)N1CCC(S(=O)(=O)NC)C1 (centres unmarked)
viability at 48 h, 10 µM (%): 104

molecule: C=CC(=O)N1CCCC1C1COCCC1(C)O (centres unmarked)
viability at 48 h, 10 µM (%): 107

molecule: O=C(CCl)NC(=O)NC12CC3CC(CC(C3)C1)C2
viability at 48 h, 10 µM (%): 73.7

molecule: Cc1ccc(C(=O)NNC(=O)CCl)cc1
viability at 48 h, 10 µM (%): 123

molecule: Cc1ccc(NC(=O)NC(=O)CCl)c(C)c1
viability at 48 h, 10 µM (%): 53.9

molecule: CC(C)(C)NC(=O)CNC(=O)CCl
viability at 48 h, 10 µM (%): 87.5

molecule: O=C(CCl)NC1CCN(C(=O)C2CCCCC2)CC1
viability at 48 h, 10 µM (%): 78.6

molecule: CN(CC(=O)NC(C)(C)C)C(=O)CCl
viability at 48 h, 10 µM (%): 85.2

====

Form field: viability at 48 h, 10 µM (one value per entry).
# assayInfo: in vitro
# Design: species or system CCD841, HEK293
# measurementParameters: human, hb2 cells, read-out: HB-2 Cells Viability (%)

compound: C=CC(=O)N1CCCc2[nH]c3ccc(F)cc3c2C1 [PCM-0102485]
readoutUnit: %
viability at 48 h, 10 µM: 95.2

compound: O=C(CCl)Nc1cc(F)cc(F)c1 [PCM-0102874]
readoutUnit: %
viability at 48 h, 10 µM: 14.3

compound: Cl.O=C(CCl)Nc1ccc(N2CCCC2)cc1 [PCM-0102670]
readoutUnit: %
viability at 48 h, 10 µM: 35

compound: N#Cc1cccc(CNC(=O)CCl)c1 [PCM-0102936]
readoutUnit: %
viability at 48 h, 10 µM: 97.1

compound: N#Cc1cnn(-c2ccccc2)c1NC(=O)CCl [PCM-0102225]
readoutUnit: %
viability at 48 h, 10 µM: 99

compound: C=CC(=O)N1CCC(Cc2ccccn2)CC1 [PCM-0102473]
readoutUnit: %
viability at 48 h, 10 µM: 100

compound: CC(NC(=O)CCl)c1ccc(Cl)cc1Cl (centres unmarked) [PCM-0102212]
readoutUnit: %
viability at 48 h, 10 µM: 37.4

compound: CC(NC(=O)CCl)c1ccc2c(c1)CC(=O)N2 (centres unmarked) [PCM-0102816]
readoutUnit: %
viability at 48 h, 10 µM: 94.8

compound: C=CC(=O)N1CCCC(c2nc(-c3cccc(F)c3)no2)C1 (centres unmarked) [PCM-0102689]
readoutUnit: %
viability at 48 h, 10 µM: 101

compound: O=C(CCl)Nc1ccccc1C(=O)O [PCM-0102307]
readoutUnit: %
viability at 48 h, 10 µM: 105

compound: O=C(CCl)N1CCOCC1 [PCM-0102749]
readoutUnit: %
viability at 48 h, 10 µM: 98.7

====

# assayInfo: in vitro
# Parameters: species or system HB2, CCD841
# measurementParameters: human, hek293 cells
Lab note: anything with viability at 48 h, 10 µM below 80% is marked Condition met; values at 80% or higher are marked Condition not met.

compound: CC(c1nc2ccccc2s1)N(C)C(=O)CCl (stereo not drawn)
discreteLabel: Condition met
//
compound: O=C(CCl)N1CCN(c2ccccc2Cl)CC1
discreteLabel: Condition met
//
compound: Cc1c(Cl)cnc(NC(=O)CCl)c1Cl
discreteLabel: Condition not met
//
compound: O=C(CCl)NC1CS(=O)(=O)CC1Cl (stereo not drawn)
discreteLabel: Condition not met
//
compound: CCOC(=O)N1CCN(C(=O)CCl)CC1
discreteLabel: Condition not met
//
compound: C#CCN1CCN(C(=O)CCl)CC1.Cl
discreteLabel: Condition met

====

Form field: viability at 48 h, 10 µM (one value per entry).
# assayInfo: in vitro
# Design: species or system HB2, HEK293
# measurementParameters: human, ccd841 cells

compound: C=CC(=O)N1CC(S(=O)(=O)CC)C1 [PCM-0102442]
viability at 48 h, 10 µM / %: 100
--
compound: O=C(CCl)N1CCc2sccc2C1 [PCM-0102123]
viability at 48 h, 10 µM / %: 73.1
--
compound: Cc1nc(-c2ccc(C)c(NC(=O)CCl)c2)n[nH]1 [PCM-0103052]
viability at 48 h, 10 µM / %: 43.4
--
compound: O=C(CCl)N1CCCc2cc([N+](=O)[O-])ccc21 [PCM-0102188]
viability at 48 h, 10 µM / %: 32.3
--
compound: O=C(CCl)NC(=O)NC1CCCCC1 [PCM-0102692]
viability at 48 h, 10 µM / %: 70.7
--
compound: Cc1cc(Cl)ccc1NC(=O)CCl [PCM-0102214]
viability at 48 h, 10 µM / %: 67.9

====

Form field: BSA (one value per entry).
# targetOfAssay: BSA (Bos taurus, UniProt P02769)
# Construct: gene ALB
# Sequence (P02769 whole entry): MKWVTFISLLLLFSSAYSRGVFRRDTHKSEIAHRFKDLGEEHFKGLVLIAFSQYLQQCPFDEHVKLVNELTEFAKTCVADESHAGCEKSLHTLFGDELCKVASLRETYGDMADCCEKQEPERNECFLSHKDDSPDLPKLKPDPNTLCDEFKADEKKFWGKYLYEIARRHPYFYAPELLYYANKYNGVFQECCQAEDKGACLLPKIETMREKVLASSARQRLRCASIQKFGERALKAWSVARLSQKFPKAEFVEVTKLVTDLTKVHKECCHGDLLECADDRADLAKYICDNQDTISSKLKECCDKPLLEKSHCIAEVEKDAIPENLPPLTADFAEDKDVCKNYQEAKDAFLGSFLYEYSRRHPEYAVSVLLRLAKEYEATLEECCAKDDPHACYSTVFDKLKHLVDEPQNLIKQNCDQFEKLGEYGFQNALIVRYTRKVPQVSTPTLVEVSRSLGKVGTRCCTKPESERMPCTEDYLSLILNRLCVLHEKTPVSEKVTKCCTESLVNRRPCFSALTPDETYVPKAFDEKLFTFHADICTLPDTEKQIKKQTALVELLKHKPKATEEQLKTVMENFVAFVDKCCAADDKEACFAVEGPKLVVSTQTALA
# Design: Intact protein LC/MS covalent labelling, fragments in pools of five, 200 uM each, 4 °C
# measurementParameters: 24 h, 4 °C, pool of five; 200 µM; covalent

compound: COc1ccc2nc(NC(=O)CCl)sc2c1
BSA: 0
//
compound: CC1CCN(C(=O)CCl)CC1
BSA: 0
//
compound: C=CC(=O)NC1(C#N)CCOC1 (stereo not drawn)
BSA: 0
//
compound: CCC1CCCCN1C(=O)CCl (stereo not drawn)
BSA: 0
//
compound: O=C(CCl)NNC(=O)c1ccco1
BSA: 0.2
//
compound: O=C(CCl)Nc1ccc(N2CCOCC2)cc1
BSA: 0

====

# targetOfAssay: NNMT (hNNMT) (Homo sapiens)
# Construct: wild type, N-terminal His6 tag kept (no cleavage described), E. coli, construct 31248 Da
# Sequence (P40261 1-264): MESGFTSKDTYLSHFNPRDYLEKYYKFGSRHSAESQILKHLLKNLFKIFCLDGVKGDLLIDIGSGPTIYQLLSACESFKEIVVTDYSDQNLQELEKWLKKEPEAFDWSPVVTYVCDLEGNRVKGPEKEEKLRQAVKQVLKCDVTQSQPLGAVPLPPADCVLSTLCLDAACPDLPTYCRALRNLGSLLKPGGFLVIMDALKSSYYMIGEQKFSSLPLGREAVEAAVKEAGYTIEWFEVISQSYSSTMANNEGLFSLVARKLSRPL
# Set-up: Intact protein LC/MS covalent labelling, fragments in pools of five, 200 uM each, 4 °C
# measurementParameters: 24 h, 4 °C, pool of five; 200 µM; covalent
Form field: NNMT (one value per entry).

molecule: O=C(CCl)N1CCN(C(=O)c2ccco2)CC1
NNMT: 0.1

molecule: Cc1ccc(NC(=O)CCl)cc1C
NNMT: 0.7

molecule: C=CC(=O)Nc1cccc(F)c1
NNMT: 0

molecule: N#CC1(NC(=O)CCl)CCCCC1
NNMT: 0

molecule: C=CC(=O)N(C)CC1CCn2ccnc2C1 (centres unmarked)
NNMT: 0

molecule: O=C(CCl)N=c1sccn1Cc1ccccc1
NNMT: 0.25

molecule: O=C(CCl)N1CCOC1=O
NNMT: 0

molecule: Cc1cc(Br)ccc1NC(=O)CCl
NNMT: 0.39

molecule: COCC(=O)NC(=O)CCl
NNMT: 0

molecule: COC(=O)c1cc(Cl)cc(Cl)c1NC(=O)CCl
NNMT: 0.11

molecule: C=CC(=O)Nc1ccccc1C(=O)OC
NNMT: 0

molecule: O=C(CCl)Nc1ccccc1
NNMT: 0

molecule: C=CC(=O)N1CCc2ccccc21
NNMT: 0.22

molecule: O=C(CCl)N1CCc2ccc([N+](=O)[O-])cc21
NNMT: 0.61

molecule: CNC(=O)c1cccc(NC(=O)CCl)c1
NNMT: 0

molecule: C=CC(=O)N1CC(=O)NC2CCCCC21 (centres unmarked)
NNMT: 0

molecule: Cl.O=C(CCl)Nc1ccc(Cl)cn1
NNMT: 0.19

molecule: O=C(CCl)Nc1ccc2c(c1)CCC2
NNMT: 0.22

molecule: O=C(CCl)NCc1cc(Br)cs1
NNMT: 0

molecule: Cc1ccc(-c2cc(NC(=O)CCl)on2)cc1
NNMT: 0.64

molecule: CN(CCC#N)C(=O)CCl
NNMT: 0.32

molecule: C=CC(=O)N1CCNC(=O)C1c1c(F)cccc1Cl (centres unmarked)
NNMT: 0

molecule: N#Cc1cccc(C(=O)NNC(=O)CCl)c1
NNMT: 0

molecule: C=CC(=O)Nc1ccc(C(=O)O)cc1
NNMT: 0

molecule: CCOC(=O)C1CCCN(C(=O)CCl)C1 (centres unmarked)
NNMT: 0.13

molecule: CC(=O)c1ccccc1NC(=O)CCl
NNMT: 0.19

molecule: CC(=O)NNC(=O)CCl
NNMT: 0

molecule: COc1ccc2nc(NC(=O)CCl)sc2c1
NNMT: 0.71

molecule: O=C(CCl)Nc1nnn[nH]1
NNMT: 0

molecule: C=CC(=O)Nc1cc(CC(C)(C)C)nn1C
NNMT: 0.12

molecule: CC(NC(=O)CCl)c1ccc(Br)cc1 (centres unmarked)
NNMT: 0.55

molecule: Cc1cc(Cl)ccc1NC(=O)CCl
NNMT: 0.3

molecule: O=C(CCl)Nc1cccc(N2CCCC2=O)c1
NNMT: 0.23

molecule: O=C(CCl)Nc1nc(C2CC2)no1
NNMT: 0.16

molecule: O=C(CCl)N1CCN(S(=O)(=O)c2cccs2)CC1
NNMT: 0

molecule: C=CC(=O)N1CCCC1c1cccc2c1OCCO2 (centres unmarked)
NNMT: 0

molecule: CN(C)C(=O)CNC(=O)CCl
NNMT: 0

molecule: CN(C)C(=O)CN(C)C(=O)CCl
NNMT: 0

molecule: COc1ccc(Cl)cc1NC(=O)CCl
NNMT: 0

molecule: O=C(CCl)N1CCCCC1
NNMT: 0

molecule: C=CC(=O)N1CCN(C2CCCN(C3CCOCC3)C2=O)CC1 (centres unmarked)
NNMT: 0

molecule: C=CC(=O)N(C)C1CCCCNC1=O (centres unmarked)
NNMT: 0

molecule: NS(=O)(=O)c1ccccc1NC(=O)CCl
NNMT: 0

molecule: CC1(C)CCCN1C(=O)CCl
NNMT: 0

molecule: Cl.O=C(CCl)N1CCN(Cc2ccc3c(c2)CCO3)CC1
NNMT: 0.24

molecule: O=C(CCl)NC1C2CC3CC(C2)CC1C3 (centres unmarked)
NNMT: 0

molecule: O=C(CCl)NN1C(=O)NC2(CCCCC2)C1=O
NNMT: 0
